test system: CEM-SS; test: Compound was evaluated for the cytoprotection of CEM-SS cells by XTT cytoprotection assay through the NCI AIDS Screen (IC50); assay type: functional, cell-based; details: Homo sapiens
Property Name: IC50
Be sure to follow the number with its unit.

Prompt: Please give the documented IC50 of CC(=O)Oc1ccc(/C=C/C(=O)NCCOC(=O)/C=C/c2ccc(OC(C)=O)c(OC(C)=O)c2)cc1OC(C)=O
Response: 15.6 µM

====

system: MT4; test: Concentration of compound required to protect 50% of MT-4 cells against retroviral cytopathic effects by HIV-2 (ROD); type: functional, cell-based; details: Homo sapiens
Property Name: EC50 (µM)
Numbers only, in µM.

Prompt: Please give the documented EC50 of CC(=O)Oc1ccc(/C=C/C(=O)O[C@@H](C(=O)O)[C@@H](OC(=O)/C=C/c2ccc(OC(C)=O)c(OC(C)=O)c2)C(=O)O)cc1OC(C)=O
Response: 10.1
